target: GABA-A receptor; anion channel (Rattus norvegicus) (UniProt O09028+P15431+P18506+P18508+P19969+P20236+P23574+P23576+P28471+P28473+P30191+P62813+P63079+P63138+Q91ZM7+Q9ES14)
Labels assigned by TBPS shift range: bin 1 = under 0.5, bin 2 = from 0.5 up to 0.7, bin 3 = 0.7 and over

CC(C)n1c(=O)c2c(-c3cccc(C(F)(F)F)c3)ncn2c2ccccc21    bin 1
CN(C)C(=O)N1c2ccccc2-n2cnc(-c3ccccc3)c2C1(C)C    bin 1
CC(C)n1c(=O)c2c(-c3ccccc3)ncn2c2ccc(F)cc21    bin 3
CC1(C)c2c(-c3ccc(F)cc3)ncn2-c2ccccc2N1C(=O)N1CCCC1    bin 2
O=C(N1CCOCC1)N1Cc2c(-c3ccc(F)cc3)ncn2-c2ccccc21    bin 2
COc1ccc(-c2ncn3c2CN(C(=O)N2CC(C)N(C)C(C)C2)c2ccccc2-3)cc1 (stereo not given)    bin 1
Cc1ccc(-c2ncn3c2CN(C(=O)N2CCCC2)c2ccccc2-3)cc1    bin 3
COc1cccc(-c2ncn3c2c(=O)n(C(C)C)c2ccccc23)c1    bin 1
CC(C)(C)NC(=O)N1Cc2c(-c3ccc(F)cc3)ncn2-c2ccccc21    bin 3

====

biological target: GABA-A receptor; anion channel (Rattus norvegicus) (UniProt O09028+P15431+P18506+P18508+P19969+P20236+P23574+P23576+P28471+P28473+P30191+P62813+P63079+P63138+Q91ZM7+Q9ES14)
Param label: returns y when TBPS shift < 0.4, returns n otherwise, including exact equality.

O=C(c1ccccc1F)N1Cc2c(-c3ccc(F)cc3)ncn2-c2ccccc21    n
CC1CN(C(=O)N2Cc3c(-c4ccc(F)cc4)ncn3-c3ccccc32)CC(C)N1 (stereo unspecified)    n
CC(C)n1c(=O)c2c(-c3ccc(F)cc3)ncn2c2ccc(Cl)cc21    y
CC(C)n1c(=O)c2c(-c3ccc(C(F)(F)F)cc3)ncn2c2ccccc21    y
CC1CN(C(=O)N2Cc3c(-c4ccc(F)cc4)ncn3-c3ccc(F)cc32)CC(C)N1 (stereo unspecified)    n

====

test system: Rattus norvegicus; experiment: Ability to antagonize metrazole-induced seizures (clonic and tonic) in rats after intraperitoneal injection; details: ip
quantity: ED50 (mg/kg)

CC1CN(C(=O)N2Cc3c(-c4ccc(F)cc4)ncn3-c3cccc(Cl)c32)CC(C)N1C (stereo not given)    1.8
COc1ccc(-c2ncn3c2c(=O)n(C(C)C)c2c(Cl)cccc23)cc1    1.3
CC1CN(C(=O)N2Cc3c(-c4ccc(F)cc4)ncn3-c3ccccc32)CC(C)N1 (stereo not given)    1.1
COc1ccc(-c2ncn3c2c(=O)n(C(C)C)c2ccccc23)cc1    12.5

====

tested on: Rattus norvegicus; experiment: Ability to antagonize metrazole-induced seizures (clonic and tonic) in rats after intraperitoneal injection; conditions: ip
quantity: ED50

Cc1cccc2c1n(C(C)C)c(=O)c1c(-c3ccc(F)cc3)ncn12    2.6 mg/kg
COc1ccc(-c2ncn3c2CN(C(=O)N2CC(C)NC(C)C2)c2ccccc2-3)cc1 (stereo not given)    0.8 mg/kg
O=C(N1CCOCC1)N1Cc2c(-c3ccc(F)cc3)ncn2-c2ccc(F)cc21    0.14 mg/kg
CC1CN(C(=O)N2Cc3c(-c4ccc(F)cc4)ncn3-c3ccc(F)cc32)CC(C)N1C (stereo not given)    1.3 mg/kg
CC(C)n1c(=O)c2c(-c3ccc(F)cc3)ncn2c2cccc(Cl)c21    0.9 mg/kg

====

test system: Rattus norvegicus; test: Ability to antagonize metrazole-induced seizures (clonic and tonic) in rats after intraperitoneal injection; conditions: ip
Listed here are compounds together with their documented ED50.
quantity: ED50 (mg/kg)

CC(C)n1c(=O)c2c(-c3noc(C4CC4)n3)ncn2c2ccccc21    1.6
O=C(N1CCCC1)N1Cc2c(-c3ccc(F)cc3)ncn2-c2ccccc21    14.8

====

Listed here are compounds together with their documented Ki.
target: GABA-A receptor; anion channel; assay: Binding affinity against benzodiazepine receptor (BzR) in rat cortical membranes determined by competition experiments with radiolabeled [3H]flunitrazepam (Fnz)
quantity: Ki

COc1ccccc1-c1ncn2c1c(=O)n(C(C)C)c1ccccc12    > 10 µM
Cc1ccc(-c2ncn3c2c(=O)n(C(C)C)c2ccccc23)cc1    0.174 µM
O=C(N1CCOCC1)N1Cc2c(-c3ccc(F)cc3)ncn2-c2ccc(F)cc21    0.00216 µM
CC(C)(C)NC(=O)N1Cc2c(-c3ccc(F)cc3)ncn2-c2ccccc21    0.283 µM
CC(C)n1c(=O)c2c(-c3ccc(F)cc3)ncn2c2ccccc21    0.115 µM

====

target: GABA-A receptor; anion channel (Rattus norvegicus) (UniProt O09028+P15431+P18506+P18508+P19969+P20236+P23574+P23576+P28471+P28473+P30191+P62813+P63079+P63138+Q91ZM7+Q9ES14)
Labels assigned by TBPS shift range: lower level: < 0.6; middle level: ≥ 0.6 and < 0.9; upper level: ≥ 0.9

COC(=O)N1Cc2c(-c3ccc(F)cc3)ncn2-c2ccccc21    lower level
CC(C)n1c(=O)c2c(-c3cccc(F)c3)ncn2c2ccccc21    lower level
O=C(N1CCCC1)N1Cc2c(-c3ccccc3)ncn2-c2ccccc21    middle level
COc1ccc(-c2ncn3c2c(=O)n(C(C)C)c2cc(F)ccc23)cc1    upper level
CC(C)n1c(=O)c2c(-c3ccc(F)cc3)ncn2c2ccc(F)cc21    middle level
Cc1ccc(-c2ncn3c2c(=O)n(C(C)C)c2ccccc23)cc1    upper level
Cc1cccc2c1n(C(C)C)c(=O)c1c(-c3ccc(F)cc3)ncn12    upper level
CC(C)n1c(=O)c2c(-c3ccc(F)cc3)ncn2c2ccccc21    lower level
COc1ccc(-c2ncn3c2c(=O)n(C(C)C)c2ccccc23)cc1    middle level
O=C(N1CCOCC1)N1Cc2c(-c3ccc(F)cc3)ncn2-c2cccc(Cl)c21    lower level

====

system: Rattus norvegicus; test: Ability to antagonize metrazole-induced seizures (clonic and tonic) in rats after intraperitoneal injection; conditions: ip
Param label: returns true when ED50 < 4 mg/kg, returns false otherwise, including exact equality.

O=C(N1CCOCC1)N1Cc2c(-c3ccc(F)cc3)ncn2-c2ccccc21    true
O=C(c1ccc(F)cc1)N1Cc2c(-c3ccc(F)cc3)ncn2-c2ccccc21    false
CC1(C)c2c(-c3ccc(F)cc3)ncn2-c2ccccc2N1C(=O)N1CCCC1    false
Cc1ccc(-c2ncn3c2c(=O)n(C(C)C)c2ccccc23)cc1    false
CCNC(=O)N1Cc2c(-c3ccc(F)cc3)ncn2-c2ccccc21    false
O=C(N1CCOCC1)N1Cc2c(-c3ccc(F)cc3)ncn2-c2ccc(Cl)cc21    true
CC(C)OC(=O)N1Cc2c(-c3ccc(F)cc3)ncn2-c2ccccc21    false
CC1CN(C(=O)N2Cc3c(-c4ccc(F)cc4)ncn3-c3ccccc32)CC(C)N1C (stereo unspecified)    false
CC(C)n1c(=O)c2c(-c3cccc(C(F)(F)F)c3)ncn2c2ccccc21    false
CN1C(=O)CN=C(c2ccccc2)c2cc(Cl)ccc21 [DIAZEPAM]    true
CC1CN(C(=O)N2Cc3c(-c4ccc(F)cc4)ncn3-c3ccc(F)cc32)CC(C)N1 (stereo unspecified)    true
O=C(c1cccc(F)c1)N1Cc2c(-c3ccc(F)cc3)ncn2-c2ccccc21    true
Cc1ccc(-c2ncn3c2C(C)(C)N(C(=O)N2CCCC2)c2ccccc2-3)cc1    false
CC(C)n1c(=O)c2c(-c3ccc(F)cc3)ncn2c2ccccc21    false
CN(C)C(=O)N1c2ccccc2-n2cnc(-c3ccc(F)cc3)c2C1(C)C    false
O=C(N1CCCCC1)N1Cc2c(-c3ccccc3)ncn2-c2ccccc21    false
CN(C)C(=O)N1Cc2c(-c3ccc(F)cc3)ncn2-c2ccccc21    false
COc1ccc(-c2ncn3c2c(=O)n(C(C)C)c2c(C)cccc23)cc1    true
COc1ccc(-c2ncn3c2CN(C(=O)N2CC(C)N(C)C(C)C2)c2ccccc2-3)cc1 (stereo unspecified)    true
NC(=O)N1Cc2c(-c3ccc(F)cc3)ncn2-c2ccccc21    false
Cc1ccc(-c2ncn3c2CN(C(=O)N(C)C)c2ccccc2-3)cc1    false

====

tested on: Rattus norvegicus; assay: Ability to antagonize metrazole-induced seizures (clonic and tonic) in rats after intraperitoneal injection; conditions: ip
quantity: ED50 (mg/kg)

CC1CN(C(=O)N2Cc3c(-c4ccc(F)cc4)ncn3-c3cccc(Cl)c32)CC(C)N1 (stereo not given)    1.8
O=C(N1CCOCC1)N1Cc2c(-c3ccc(F)cc3)ncn2-c2cccc(Cl)c21    3.7

====

target: GABA A receptor alpha-3/beta-2/gamma-2 (Rattus norvegicus) (UniProt P18508+P20236+P63138); experiment: In vitro efficacy as change in chloride current against GABA-A alpha-3-beta-2-gamma-2 subunit expression; assay type: functional
quantity: Cl - current change

CC(C)n1c(=O)c2c(-c3ccc(F)cc3)ncn2c2ccccc21    0.45
CC(C)n1c(=O)c2c(-c3ccc(F)cc3)ncn2c2ccc(Cl)cc21    0.03
CC(C)n1c(=O)c2c(-c3ccc(C(F)(F)F)cc3)ncn2c2ccccc21    0.36
